Measured TGI by item
System: U251 CNS
Protocol Details: NCI tumour cell line growth inhibition, 48 h

# example entries with known answers
Molecule	Assayed Target	TGI
CC(=O)[C-](C(C)=O)c1ccccc1.CC(=O)[C-](C(C)=O)c1ccccc1.CC(=O)[C-](C(C)=O)c1ccccc1.[Cl-].[Zr+4]	U251 CNS	> 100 µM
COc1cc2ccc3ccncc3c2cc1OC	U251 CNS	> 10 µM

-- ask Recorded TGI for `Cc1ccccc1NC(=O)Cc1csc(N=Nc2c(O)[nH]c3ccccc23)n1` , please?
-- reply > 1 µM

-- ask Recorded TGI for `C(#Cc1ccccc1)SC1=C(c2ccccc2)S/C(=C(\SC#Cc2ccccc2)c2ccccc2)S1` , please?
-- reply > 100 µM

====

Test system: A549 NSCLC
Protocol Details: NCI tumour cell line growth inhibition, 48 h
Measured TGI by item

# example entries with known answers
Compound	Test Readout	Readout Value
Cc1ccc(S(=O)(=O)Nn2c(O)c(C#N)c(-c3ccc([N+](=O)[O-])cc3)c(C#N)c2=O)cc1	TGI	> 100 µM
Cc1ccc2nc(NC(=O)C(=O)CC(=O)c3cccc4ccccc34)sc2c1	TGI	> 100 µM

-- ask Recorded TGI for `COc1ccc2c(c1)c1c3n2CCNN=C3CCC1` , please?
-- reply > 100 µM

-- ask Recorded TGI for `Cc1c(O)c(=O)ccn1CCc1ccc(O)cc1` , please?
-- reply > 100 µM

-- ask Recorded TGI for `NC(=O)c1ccc(N(C(N)=O)c2c(F)cccc2F)nc1-c1ccc(F)cc1F` , please?
-- reply > 100 µM

-- ask Recorded TGI for CCOC(=O)C(C(=O)COC(C)(C)C)[C@@H]1C=C[C@H](OC(C)=O)C1 (stereo partly drawn) , please?
-- reply > 100 µM

-- ask Recorded TGI for Nc1nc(N)c2c(n1)NC(c1sc(Cl)nc1Cl)CC(c1ccc3c(c1)OCO3)=N2 (stereo not drawn) , please?
-- reply > 100 µM

-- ask Recorded TGI for `O=C1c2cc([N+](=O)[O-])sc2C(=O)c2c([N+](=O)[O-])csc21` , please?
-- reply 3.56 µM

-- ask Recorded TGI for `Cc1c(Cl)c(C)c(Cc2c(C)c(Cl)c(C)c(Cl)c2O)c(O)c1Cl` , please?
-- reply 18.6 µM

-- ask Recorded TGI for `O=P(O)(O)CN1CCNCCN(CP(=O)(O)O)CC1` , please?
-- reply 58.7 µM

-- ask Recorded TGI for `O=S(=O)(O)SCCNCCCCCC1CCCCC1` , please?
-- reply 23 µM

-- ask Recorded TGI for `O=S(=O)(O)c1ccc2c(N=Nc3ccc(Sc4ccc(N=Nc5c(O)ccc6cc(S(=O)(=O)O)ccc56)cc4)cc3)c(O)ccc2c1` , please?
-- reply > 100 µM

====

Measured TGI by item
Test system: HCT-116 colon
Protocol Details: NCI tumour cell line growth inhibition, 48 h

# example entries with known answers
Compound	TGI
CC(C)c1ccc(/C=C2\CSCC3=C2N=C2SCC(=O)N2C3c2ccc(C(C)C)cc2)cc1 (centres undefined)	> 100 µM
[CH3][Sn]1([CH3])[O]CC(COc2cc(Cl)c(Cl)cc2Cl)[O]1 (centres undefined)	> 100 µM
COC1CC(OC2C(C)OC(OC3C(C)OC(OC4C(C)OC(O[C@H]5CC[C@@]6(C)C(=CC[C@]7(O)[C@@H]6C[C@@H](O)[C@@]6(C)[C@]7(O)CC[C@@]6(O)C(C)=O)C5)CC4OC)CC3OC)CC2OC)OC(C)C1O (some centres undefined)	> 12.5 µM
NS(=O)(=O)c1ccc(N=Nc2ccc(O)c(C(=O)O)c2)cc1	> 100 µM
NNC(=O)C(O)C(O)C(=O)NN (centres undefined)	> 100 µM
NN/C(=N\S(=O)(=O)c1ccc(S(=O)(=O)c2ccccc2)s1)Nc1ccc(Cl)cc1	32.5 µM
COc1cc(-c2cc(=O)c3c(O)c(OC)c(OC)c(OC)c3o2)cc(OC)c1OC	> 44.9 µM
Nc1ccn(C2OC(C(OC3OC(CO)C(O)C(N)C3O)C(O)C(O)C(O)C(O)CO)C(N)C(O)C2O)c(=O)n1 (centres undefined)	> 100 µM
Oc1ccc(Cl)cc1/C=N\NC(=S)N/N=C/c1cc(Cl)ccc1O	18.5 µM
N#CC(C(=O)CCCC(=O)Nc1ccc(Cl)cc1Cl)c1ccc(Cl)cc1 (centres undefined)	> 100 µM

-- ask Recorded TGI for `O=C(Nc1cccc(C(F)(F)F)c1)c1cc2ccccc2cc1O` , please?
-- reply 10.1 µM

-- ask Recorded TGI for `Cc1ccc(NC(=O)CC(=O)n2nc(C)c(N=Nc3cccc(C)c3)c2C)cc1` , please?
-- reply > 100 µM

-- ask Recorded TGI for COC(=O)C(=O)C(C(=O)C(=O)Nc1cc(Cl)c(Cl)cc1Cl)c1nc2ccc([N+](=O)[O-])cc2[nH]c1=O (centres undefined) , please?
-- reply > 100 µM

-- ask Recorded TGI for `COC(=O)c1cc(/C=C\c2cc(OC)ccc2OC)ccc1OC` , please?
-- reply > 100 µM

-- ask Recorded TGI for COc1ccc(-n2cnc3c(NC(Cc4ccccc4)C(=O)O)ncnc32)cc1 (centres undefined) , please?
-- reply > 100 µM

-- ask Recorded TGI for CN/N=C(\C(=O)Nc1ccc(C)c(C)c1)C(C(=O)OC)c1nc2ccc([N+](=O)[O-])cc2[nH]c1=O (centres undefined) , please?
-- reply > 100 µM

-- ask Recorded TGI for `O=C(Nc1ccc2ccccc2c1)c1cc2cc(CCl)ccc2oc1=O` , please?
-- reply > 100 µM

-- ask Recorded TGI for O=C(CCC1CCCCN1)Nc1ccc2c(c1)C(=O)c1ccc(NC(=O)CCN3CCCCC3)cc1C2=O (centres undefined) , please?
-- reply 4.96 µM

-- ask Recorded TGI for `Cn1nc(-c2ccccc2)c(C(=O)/C=C/c2ccc(Cl)cc2)c(N2CCCC2)c1=O` , please?
-- reply 8.11 µM

====

Test system: HS 578T breast
Protocol Details: NCI tumour cell line growth inhibition, 48 h
Test Readout: TGI

Compound	Readout Value
O=C(/C=C/c1ccccc1)CCC1C(=O)NC(=S)NC1=O	> 100 µM
COCCN1C(=O)C2c3[nH]c4ccccc4c3C3CCC(C(C)(C)C)CC3C2C1=O (centres undefined)	38.8 µM
CC(=O)NC1C(OCc2ccccc2)OC(CO)C(O)C1OCC(=O)N[C@@H](C)C(=O)N[C@H](CCC(=O)NCCCNc1ccc([N+](=O)[O-])c2[nH]c3ccccc3c(=O)c12)C(N)=O (some centres undefined)	90.2 µM
Nc1nc(N)c2c(n1)NC(c1sc(Cl)nc1Cl)CC(c1ccc3c(c1)OCO3)=N2 (centres undefined)	31.1 µM
FC(F)(F)c1ccc2nc(Sc3ccc4ccccc4c3)cnc2c1	> 100 µM

-- ask Recorded TGI for `Cc1ccc(NC(=O)CC(=O)n2nc(C)c(N=Nc3cccc(C)c3)c2C)cc1` , please?
-- reply > 100 µM

-- ask Recorded TGI for `Cn1cc(C2=C(c3cn(CCCCC(=N)N)c4ccccc34)C(=O)NC2=O)c2ccccc21` , please?
-- reply > 25 µM

-- ask Recorded TGI for `O=[N+]([O-])/C(C(Cl)=C(Cl)Cl)=C(/Nc1ccccc1)Sc1ccccc1` , please?
-- reply > 100 µM

-- ask Recorded TGI for CC(C)(C)C1=C(Br)C(OC(=O)C(F)(F)F)(C(C)(C)C)OP1(=O)c1ccccc1 (centres undefined) , please?
-- reply 65.5 µM

-- ask Recorded TGI for `O=C(CCCCCCCCC(=O)N/N=C\c1cc(Cl)ccc1O)N/N=C\c1cc(Cl)ccc1O` , please?
-- reply > 100 µM

-- ask Recorded TGI for `O=C(O)CCc1nc(-c2ccccc2-n2cccc2)no1` , please?
-- reply > 100 µM

-- ask Recorded TGI for `O=P(O)(O)CN1CCNCCN(CP(=O)(O)O)CC1` , please?
-- reply > 100 µM

-- ask Recorded TGI for `C=CC[C@H](N=C(SC)SC)C(=O)N1C(=O)N(C)[C@@H](C)[C@H]1c1ccccc1` , please?
-- reply > 100 µM

-- ask Recorded TGI for `COc1ccc2c(c1)CCC/C2=N\NS(=O)(=O)c1c(C)cc(C)cc1C` , please?
-- reply 61.8 µM

====

Test system: DU-145 prostate
Protocol Details: NCI tumour cell line growth inhibition, 48 h
Test Readout: TGI

-- ask Short answer please: TGI, DU-145 prostate, entry CC(C)C(NC(=O)C(Cc1ccccc1)NC(=O)[C@H]1CCC[C@H]1NC(=O)C(Cc1ccc(OC(C)(C)C)cc1)NC(=O)OC(C)(C)C)C(N)=O (stereo partly drawn)
-- reply > 100 µM

-- ask Short answer please: TGI, DU-145 prostate, entry `CN(C(=O)CNC(=O)/C=C/c1cccc(Cl)c1)C1CCS(=O)(=O)CC1`
-- reply > 100 µM

-- ask Short answer please: TGI, DU-145 prostate, entry CC(=O)OCC1OC(n2c(-c3ccccc3)c(N=Nc3ccc(C)cc3)c(C)c(C#N)c2=S)C(OC(C)=O)C(OC(C)=O)C1OC(C)=O (stereo not drawn)
-- reply > 100 µM
